Item-by-item account of melting point

Here are 5 compounds together with their reported answers.
1. CCNC(=O)c1ccc(F)cc1Br ... 103 to 105 °C
2. Oc1ccc2oc3c(c2c1)CCCC3 ... 103 to 105 °C
3. O=c1cc(-c2ccccc2)c2ccccc2[nH]1 ... 263 to 265 °C
4. O=C(O)c1ccc(S(=O)(=O)Cl)cc1F ... 142 to 144 °C
5. O=C1CCCc2nc(-c3ccccc3)sc21 ... 119 to 121 °C

# lookup: melting point of COC(=O)c1ccc(NC(=O)CCCCl)cc1 128 to 130 °C

# lookup: melting point of CC1CC(=O)NC1=O (centres undefined) 61 to 63 °C

# lookup: melting point of Nc1cc(C(=O)Nc2ccccc2)ccc1Cl 199 to 201 °C

# lookup: melting point of OC1CCc2c(OCc3ccccc3)cccc21 (centres undefined) 86 to 88 °C

# lookup: melting point of N#Cc1cc(N)ccc1N1CCC(O)CC1 137 to 139 °C
